All values here come from ChEMBL document CHEMBL1138205.

molecular target: Cholinesterases; ACHE & BCHE (Homo sapiens) (UniProt P06276+P22303); experiment: Selectivity for human BChE over human AChE
Sequence (P06276 whole entry, looked up): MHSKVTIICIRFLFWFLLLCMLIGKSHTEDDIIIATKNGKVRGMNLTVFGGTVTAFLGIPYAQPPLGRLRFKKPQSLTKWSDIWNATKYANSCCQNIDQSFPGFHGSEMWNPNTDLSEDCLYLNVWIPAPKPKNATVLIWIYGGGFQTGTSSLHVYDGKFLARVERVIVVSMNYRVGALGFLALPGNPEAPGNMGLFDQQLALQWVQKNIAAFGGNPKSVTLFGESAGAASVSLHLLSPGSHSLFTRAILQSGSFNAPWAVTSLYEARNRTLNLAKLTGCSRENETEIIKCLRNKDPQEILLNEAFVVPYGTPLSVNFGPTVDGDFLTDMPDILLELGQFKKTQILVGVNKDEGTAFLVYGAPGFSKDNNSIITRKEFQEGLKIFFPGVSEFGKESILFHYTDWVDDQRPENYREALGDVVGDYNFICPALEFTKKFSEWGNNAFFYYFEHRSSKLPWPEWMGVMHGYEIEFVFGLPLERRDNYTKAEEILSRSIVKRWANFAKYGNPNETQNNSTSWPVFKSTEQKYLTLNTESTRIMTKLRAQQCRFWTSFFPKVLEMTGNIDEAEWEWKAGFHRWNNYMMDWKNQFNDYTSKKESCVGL
Sequence (P22303 whole entry, looked up): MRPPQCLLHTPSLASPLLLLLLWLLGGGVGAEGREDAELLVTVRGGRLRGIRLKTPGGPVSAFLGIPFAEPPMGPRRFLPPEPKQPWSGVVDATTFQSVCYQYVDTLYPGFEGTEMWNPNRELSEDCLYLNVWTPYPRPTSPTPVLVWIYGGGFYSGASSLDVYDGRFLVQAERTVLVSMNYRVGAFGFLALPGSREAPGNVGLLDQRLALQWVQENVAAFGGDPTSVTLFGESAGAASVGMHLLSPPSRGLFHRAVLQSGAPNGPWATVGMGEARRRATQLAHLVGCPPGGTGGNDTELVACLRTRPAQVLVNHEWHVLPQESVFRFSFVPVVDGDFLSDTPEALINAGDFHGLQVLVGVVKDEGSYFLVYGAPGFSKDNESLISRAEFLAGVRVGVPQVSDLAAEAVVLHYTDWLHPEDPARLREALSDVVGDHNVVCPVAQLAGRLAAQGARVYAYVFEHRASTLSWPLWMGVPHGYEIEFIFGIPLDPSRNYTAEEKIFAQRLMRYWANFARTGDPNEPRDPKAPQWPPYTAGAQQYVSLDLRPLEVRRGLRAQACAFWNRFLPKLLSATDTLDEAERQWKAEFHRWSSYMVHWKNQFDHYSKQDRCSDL
MEASURE: Ratio IC50
Would you mind answering with just the numeric figure?

Solved entries:
COc1cc(CCC(=O)NCC(=O)NNc2c3c(nc4ccccc24)CCCC3)cc(OC)c1OC 1.7
COc1cc(C(=O)NNc2c3c(nc4ccccc24)CCCC3)cc(OC)c1OC 227
COc1cc(C(=O)NCCCCCCC(=O)NNc2c3c(nc4ccccc24)CCCC3)cc(OC)c1OC 10.8

QUERY: Return reported Ratio IC50. Input compound: COc1cc(C(=O)NCC(=O)NNc2c3c(nc4ccccc24)CCCC3)cc(OC)c1OC
RESULT: 1.87

QUERY: Return reported Ratio IC50. Input compound: COc1cc(C(=O)NCCCCCC(=O)NNc2c3c(nc4ccccc24)CCCC3)cc(OC)c1OC
RESULT: 18.8

QUERY: Return reported Ratio IC50. Input compound: COc1cc(CCC(=O)NCCCCC(=O)NNc2c3c(nc4ccccc24)CCCC3)cc(OC)c1OC
RESULT: 424
